# test_summary: Drug level in rat plasma at 30 mg/kg, po measured at 30 mins post dose
# Assay type: ADME, organism-based
# Parameters: dose 30 mg/kg, route oral
# test_parameters: read-out: Drug uptake
quantity_name: concentration at 0.5 h (µM)

chem_smiles=Nc1nccc(/C=C/c2ccccc2)n1 numeric_result=11.6

----------
# test_summary: Ratio of drug level in brain to plasma in rat at 30 mg/kg, po measured at 30 mins post dose
# Format: ADME, organism-based
# Design: dose 30 mg/kg, route oral
# test_parameters: read-out: BPR
quantity_name: Kp at 0.5 h

chem_smiles=Nc1nccc(/C=C/c2ccccc2)n1 numeric_result=2.9

----------
# test_summary: Oral bioavailability in rat at 30 mg/kg, po after 30 mins
# Type: ADME, organism-based
# test_parameters: in vivo
quantity_name: bioavailability

chem_smiles=Nc1nccc(/C=C/c2ccccc2)n1 result=51%
